- Test system: 922993-354-T-J3-PDC complex spheroids, viability, % test/control
- MEASUREMENT_DESCRIPTION: Anticancer human tumor 922993-354-T-J3-PDC patient-derived endometrial carcinoma cell line growth inhibition [CLK]
- CONDITION: second compound 3.16 µM; first compound 0.0316 µM; hits give low values
REPORTED_METRIC: viability, T/C (%)
Numbers only; they are read as %.

Using the record for O=C(c1cc(Cc2n[nH]c(=O)c3ccccc23)ccc1F)N1CCN(C(=O)C2CC2)CC1 + CNC(=O)c1ccc(Nc2nc(OC3CCCC3)c3c(-c4ccc5nc(C)oc5c4)c[nH]c3n2)c(OC)c1 , report its viability, T/C.
32.2

What does the data say about its viability, T/C? Entry: CCN1CCN(Cc2ccc(Nc3ncc(F)c(-c4cc(F)c5nc(C)n(C(C)C)c5c4)n3)nc2)CC1 + CN1CCN(c2cc(C(=O)Nc3cc4cc(-c5cnn(C)c5)ccc4cn3)ccn2)CC1
0.11

Reported viability, T/C for Nc1ccccc1NC(=O)c1ccc(CNC(=O)OCc2cccnc2)cc1 + CN1CCN(c2cc(C(=O)Nc3cc4cc(-c5cnn(C)c5)ccc4cn3)ccn2)CC1 : what is it?
0.61

# query: viability, T/C of entry CC(CO)NC(=O)c1cc(-c2ccc(Cl)cc2)nn(-c2cnn(C)c2)c1=O (stereo not given) + CN1CCN(c2cc(C(=O)Nc3cc4cc(-c5cnn(C)c5)ccc4cn3)ccn2)CC1
0.15

Item under review: CC1COCCN1c1cc(C2(S(C)(=N)=O)CC2)nc(-c2ccnc3[nH]ccc23)n1 (stereo not given) + CNC(=O)c1ccc(Nc2nc(OC3CCCC3)c3c(-c4ccc5nc(C)oc5c4)c[nH]c3n2)c(OC)c1 . Reported viability, T/C?
34.1

###

For each entry below, report its viability, T/C value.
- System: 922993-354-T-J3-PDC complex spheroids, viability, % test/control
- MEASUREMENT_DESCRIPTION: Anticancer human tumor 922993-354-T-J3-PDC cell line growth inhibition [CLK];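 further: spheroids exposed to the agents for 7 days before readout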
- CONDITION: second compound 0.316 µM; first compound 3.16 µM; hits give low values

For the molecule shown here, Nc1ccccc1NC(=O)c1ccc(CNC(=O)OCc2cccnc2)cc1 + CNC(=O)c1ccc(Nc2nc(OC3CCCC3)c3c(-c4ccc5nc(C)oc5c4)c[nH]c3n2)c(OC)c1 , give the reported viability, T/C.
49.3%

Look up viability, T/C for this molecule: COC1C=CCC(C)C(C)S(=O)(=O)NC(=O)c2ccc3c(c2)N(CC2CCC21)CC1(CCCc2cc(Cl)ccc21)CO3 (stereo not given) + CNC(=O)c1ccc(Nc2nc(OC3CCCC3)c3c(-c4ccc5nc(C)oc5c4)c[nH]c3n2)c(OC)c1
47.5%

What value of viability, T/C has been reported for the following molecule? COc1ccc([C@@H](O)c2cc(-c3ncnc4cc(N5CCOCC5)ccc34)c(F)cc2Cl)nn1 + CNC(=O)c1ccc(Nc2nc(OC3CCCC3)c3c(-c4ccc5nc(C)oc5c4)c[nH]c3n2)c(OC)c1
87.1%

So what's the measured viability, T/C for this one? CC1(C)CCC(CN2CCN(c3ccc(C(=O)NS(=O)(=O)c4ccc(NCC5CCOCC5)c([N+](=O)[O-])c4)c(Oc4cnc5[nH]ccc5c4)c3)CC2)=C(c2ccc(Cl)cc2)C1 + CN1CCN(c2cc(C(=O)Nc3cc4cc(-c5cnn(C)c5)ccc4cn3)ccn2)CC1
29.9%

Which viability, T/C is reported for this molecule? O=c1[nH]cc(F)c(=O)[nH]1 + CNC(=O)c1ccc(Nc2nc(OC3CCCC3)c3c(-c4ccc5nc(C)oc5c4)c[nH]c3n2)c(OC)c1
56.5%

I would be grateful if you could share the reported viability, T/C for COc1cccc2c1C(=O)c1c(O)c3c(c(O)c1C2=O)CC(O)(C(=O)CO)CC3OC1CC(N)C(O)C(C)O1 (stereo not given) + CN1CCN(c2cc(C(=O)Nc3cc4cc(-c5cnn(C)c5)ccc4cn3)ccn2)CC1 .
13.3%

Bench note: what viability, T/C did COc1cccc2c1C(=O)c1c(O)c3c(c(O)c1C2=O)CC(O)(C(=O)CO)CC3OC1CC(N)C(O)C(C)O1 (stereo not given) + CNC(=O)c1ccc(Nc2nc(OC3CCCC3)c3c(-c4ccc5nc(C)oc5c4)c[nH]c3n2)c(OC)c1 show?
34.3%

Tell me the measured viability, T/C of C#Cc1c(F)ccc2cc(O)cc(-c3ncc4c(N5CC6CCC(C5)N6)nc(OCC56CCCN5CC(F)C6)nc4c3F)c12 (stereo not given) + CN1CCN(c2cc(C(=O)Nc3cc4cc(-c5cnn(C)c5)ccc4cn3)ccn2)CC1 , please.
41.4%

Fill in: viability, T/C of CC(Nc1ccc2c(c1)OCCn1cc(N3C(=O)OCC3C(F)F)nc1-2)C(N)=O (stereo not given) + CN1CCN(c2cc(C(=O)Nc3cc4cc(-c5cnn(C)c5)ccc4cn3)ccn2)CC1 is ___
16.8%

I have this molecule here, CC1COCCN1c1cc(C2(S(C)(=N)=O)CC2)nc(-c2ccnc3[nH]ccc23)n1 (stereo not given) + CNC(=O)c1ccc(Nc2nc(OC3CCCC3)c3c(-c4ccc5nc(C)oc5c4)c[nH]c3n2)c(OC)c1 , and I need its recorded viability, T/C.
75.9%
